- Protocol: Plasma concentration in dog at […], po after 24 hrs
- Assay type: ADME, organism-based, Canis lupus familiaris
- Parameters: dose 2.3 mg/kg, route oral
Measurement name: concentration at 24 h
Please don't drop the unit; write it after the number.

Inquiry: Item under review: `COC(=O)N[C@H](C(=O)N1CCC[C@H]1c1nc(-c2ccc(-c3ccc(-c4c[nH]c([C@@H]5CCCN5C(=O)[C@@H](NC(=O)OC)C(C)C)n4)cc3)cc2)c[nH]1)C(C)C` . Reported concentration at 24 h?
Reply text: 26 nM

====

- Protocol: Plasma concentration in dog at 3.5 mg/kg, po after 24 hrs
- Format: ADME, organism-based, Canis lupus familiaris
- Set-up: dose 3.5 mg/kg, route oral
Measurement name: concentration at 24 h
Please don't drop the unit; write it after the number.

Inquiry: Item under review: `CCN(CC)[C@@H](C(=O)N1CCC[C@H]1c1ncc(-c2ccc(-c3ccc(-c4cnc([C@@H]5CCCN5C(=O)[C@H](C)NC(=O)OC)[nH]4)cc3)cc2)[nH]1)c1ccccc1` . Reported concentration at 24 h?
Reply text: 9 nM
